- Tested on: A498 renal
- EXPERIMENT NOTES: NCI tumour cell line growth inhibition, 48 h
Label rule, in plain words: TGI of 20 µM and up is Met, under 20 µM is Not met.

Below, 2 compounds whose answers are already recorded.
CCS(=O)(=O)N1CCC(C(C)n2c(C)c(C(=O)NCc3c(OC)cc(C)[nH]c3=O)c3ccccc32)CC1 (stereo not given)    Met
C=CC[n+]1c(/C=C/C=C2\N(C)c3ccccc3C2(C)C)sc2ccc(OC)cc21    Not met

Please look at the following compound next.
In plain terms: is recorded TGI at least 20 µM for COC(=O)CCc1cc(OC)c(O)c(C(Cc2ccc(OC)c(OC)c2)C(=O)OC)c1 (stereo not given) ?
Met

----------
- System: TK-10 renal
- EXPERIMENT NOTES: NCI tumour cell line growth inhibition, 48 h
Where a SMILES comes first, the peptide text is derived from it. The star is where a group is joined. Boc = CC(C)(C)OC(=O)*; Bz = O=C(c1ccccc1)*
Assignment: determine reported TGI for the given compounds.

NCCSc1nc2ccccc2s1    66.3 µM
CCSCC1CC(O)(c2ccccc2)C(c2ccccc2)C(c2ccc(Cl)cc2)O1 (stereo not given)    5.4 µM
Cc1cc(N(CCC#N)CCC#N)ccc1/C(N=Nc1ccc(Cl)cc1)=N\NC(=O)c1cc(Cl)ccc1O    > 100 µM
O=C(Nc1ccc(Cl)cc1Cl)C1C(=O)N(c2ccc(Cl)cc2Cl)C(=O)/C1=N\Nc1ccc([N+](=O)[O-])cc1[N+](=O)[O-] (stereo not given)    > 100 µM
COC(=O)C1=C(c2ccc(OC)c(OC)c2)OC(c2ccc(OC)c(OC)c2)C1 (stereo not given)    > 100 µM

Hi team, please reply with TGI for each item in this list.
1. O=C(Nc1cccc(-n2ccc3c(NC(=O)c4ccccc4)nccc32)c1)c1ccc(N2CCOCC2)c(C(F)(F)F)c1
2. O=C[C@@H](CO)O[C@H](C=O)c1c[nH]c(=O)[nH]c1=O
3. Cc1c(N2CCCC2)cc2c(c1NC(=O)c1ccccc1Cl)C(C)(C)CC2(C)C
4. Cc1c(NC(=S)NN)c(=O)n(-c2ccccc2)n1C
5. CC(NC(=O)C(Cc1ccc(OC(=O)c2ccccc2)cc1)NC(=O)OC(C)(C)C)C(=O)NC(Cc1ccccc1)C(=O)NCC(N)=O (stereo not given) (Boc-Y(Bz)AFG-NH2; configuration not given here)

["> 100 µM", "355 µM", "23.1 µM", "> 100 µM", "41.4 µM"]

Lab note: each compound below needs its TGI filled in.
1. Nc1ccc2c(c1)C(=O)C(=O)c1c-2nc2ccccn12
2. Cc1nc(-c2cccc(Nc3nc(-c4ccc(Cl)cc4)cs3)c2)cs1
3. CN(C)c1ccc2c(=O)c3ccccc3oc2n1
4. COc1ccc(/C=C2\CCC(C)C3=C(c4ccc(OC)c(OC)c4)C(C#N)=C(N)OC32)cc1OC (stereo not given)
5. CC(C)(C)OC1=C(OC(C)(C)C)C(O)(c2ccccc2)C1=O (stereo not given)

1: 29.3 µM; 2: 17.8 µM; 3: > 100 µM; 4: > 100 µM; 5: > 100 µM

Okay, here is my list. What is TGI for each of these?
1. COc1ccc(OC)c(/C=N/NC(=O)Cc2csc3nc(-c4ccc(Br)cc4)cn23)c1
2. CC1CC[C@]2(C(=O)O)CCC3(COC(=O)/C=C\c4ccc(O)cc4)C(=CCC4[C@@]5(C)CC[C@H](O)C(C)(C)C5CC[C@]43C)[C@@H]2[C@H]1C (stereo not given in full)
3. O=P1(O)C=CC2(CCCC2)O1

1. 51.2 µM
2. 44.7 µM
3. > 100 µM

Every entry's value here was drawn from PubChem BioAssay (NCI).
